- Tested on: SK-MEL-28
- Assay summary: NCI tumour cell line growth inhibition, 48 h
Calls of active or inactive are those of the source. Cut-off read from the data, not from the text of the source: active = GI50 up to about 1.1 µM and inactive = higher.
Classes used: active, inactive

Molecule	Study target	Class name
COc1cc(/C=C2\C[C@H]3[C@@H]4CC=C5C=C(N6CCCC6)CC[C@]5(C)[C@H]4CC[C@]3(C)C2=O)cc(OC)c1OC	SK-MEL-28	inactive
CCOC(=O)C(NC(=O)c1ccccc1)(N1CCN(c2cc3c(cc2F)c(=O)c(C(=O)O)cn3CC)CC1)C(F)(F)F (stereo not given)	SK-MEL-28	active
O=C1C(O)=C(CCCc2ccc(Oc3ccccc3)cc2)C(=O)c2ccccc21	SK-MEL-28	inactive
Cc1cc2[nH]c3c(C#N)c(-c4ccccc4)c(CN4CCOCC4)c(=O)n3c2cc1C	SK-MEL-28	inactive
O=C(/C=C/c1ccccc1F)c1ccc(Cl)c(Cl)c1	SK-MEL-28	inactive
CN(/N=C(\C(=O)O)c1ccccc1)C1=NCCN1	SK-MEL-28	inactive
COC(=O)[C@H]1C=C[C@H](OC2OC(COC(C)=O)C(OC(C)=O)C(OC(C)=O)C2OC(C)=O)n2c(=O)n(-c3ccccc3)c(=O)n21 (stereo not given in full)	SK-MEL-28	inactive
CC1(C)C(=O)N=C(N)N1C(=O)OCc1ccccc1	SK-MEL-28	inactive
Clc1ccccc1/C=C/c1cscn1	SK-MEL-28	inactive
CC1(C)[N+]([O-])=[N+]([O-])C1(Br)c1ccccc1 (stereo not given)	SK-MEL-28	inactive
